tested.target: T1, TTC7B-FAM126A (1 to 308) (human, UniProt Q86TV6 1-843; Q9BYI3 1-308)
T1 construct: N-terminal His10-2x Strep-TEV tag from the pOPT vector, cleaved with TEV; also called TTC7B-FAM126A ΔC; TTC7B-FAM126A dimer; source: E. coli BL21 DE3 C41, co-expressed, purified (HisTrap, StrepTrap, TEV cleavage, SEC)
assay.text: BLI; His-EFR3A (wild type or mutant) at 200 nM loaded on anti-penta-His tips, dipped in TTC7B-FAM126A (wild type or mutant) at 500 nM; 25°C, 20 mM HEPES pH 7.5, 150 mM NaCl, 0.01% BSA, 0.002% Tween-20; maximum response compared with wild type
recorded.conditions: both partners purified

# binder, binding result
records = [
    ("EFR3A (721 to 791) A734R (domain or fragment, human, UniProt Q14156 721-791, looked up, EFR3A, human, residues 721 to 791; source: E. coli BL21 DE3 C41, purified (HisTrap, StrepTrap, SEC); not shown: His10, N-terminal, kept) SNTEEITFEALKKRIDTSGMEEQEKEKRRLVIEKFQKAPFEEIAAQCESKANLLHDRLAQILELTIRPPPS", "binds"),
    ("EFR3A (721 to 791) I763A (domain or fragment, human, UniProt Q14156 721-791, looked up, EFR3A, human, residues 721 to 791; source: E. coli BL21 DE3 C41, purified (HisTrap, StrepTrap, SEC); not shown: His10, N-terminal, kept) SNTEEITFEALKKAIDTSGMEEQEKEKRRLVIEKFQKAPFEEAAAQCESKANLLHDRLAQILELTIRPPPS", "binds"),
    ("EFR3A (721 to 791) F728A (domain or fragment, human, UniProt Q14156 721-791, looked up, EFR3A, human, residues 721 to 791; source: E. coli BL21 DE3 C41, purified (HisTrap, StrepTrap, SEC); not shown: His10, N-terminal, kept) SNTEEITAEALKKAIDTSGMEEQEKEKRRLVIEKFQKAPFEEIAAQCESKANLLHDRLAQILELTIRPPPS", "binds"),
    ("EFR3A (721 to 791) K732E (domain or fragment, human, UniProt Q14156 721-791, looked up, EFR3A, human, residues 721 to 791; source: E. coli BL21 DE3 C41, purified (HisTrap, StrepTrap, SEC); not shown: His10, N-terminal, kept) SNTEEITFEALEKAIDTSGMEEQEKEKRRLVIEKFQKAPFEEIAAQCESKANLLHDRLAQILELTIRPPPS", "binds"),
]
